Hey, just so you know, these numbers are from patent US6451736B1.

The following compounds are listed with their measured degree of damage, Matricaria values.
Tested on: Matricaria
ASSAY PROCEDURE: Pre-emergence test/greenhouse
Format: in vivo
CONDITION LABEL: Table B, 60 g/ha, after three weeks
Express it in %; write the number only.

Recorded results for 4 compounds are shown here.
[
  {
    "COMPOUND": "CCS(=O)(=O)Nc1cc(-n2c(=O)cc(C(F)(F)F)n(C)c2=S)c(F)cc1C(N)=S",
    "MEASUREMENT UNITS": "%",
    "degree of damage, Matricaria": 100
  },
  {
    "COMPOUND": "CCS(=O)(=O)Nc1cc(-n2nc(C3CC3)n(C)c2=O)c(F)cc1C(N)=S",
    "MEASUREMENT UNITS": "%",
    "degree of damage, Matricaria": 70
  },
  {
    "COMPOUND": "CC(C)Oc1cc(N2C(=O)C3CCCCN3C2=O)c(F)cc1C(N)=S (stereo not shown)",
    "MEASUREMENT UNITS": "%",
    "degree of damage, Matricaria": 100
  },
  {
    "COMPOUND": "CCS(=O)(=O)Nc1cc(-n2nc(C(F)(F)F)n(C)c2=S)c(F)cc1C(N)=S",
    "MEASUREMENT UNITS": "%",
    "degree of damage, Matricaria": 100
  }
]

### Prompt Check the records and state degree of damage, Matricaria for Cn1c(C(F)F)nn(-c2cc(F)c(C(N)=S)cc2F)c1=S
### Response 95

### Prompt Using known records, supply degree of damage, Matricaria for CCS(=O)(=O)Nc1cc(-n2nc(C(F)F)n(C)c2=O)c(F)cc1C(N)=S
### Response 95

### Prompt Respond only with degree of damage, Matricaria recorded for CCOc1cc(-n2nc3n(c2=O)CCCC3)c(F)cc1C(N)=S
### Response 95
